biological target: D(2) dopamine receptor (Rattus norvegicus, UniProt P61169); assay: Binding affinity at Dopamine receptor D2 in rat neostriatum frozen sections by [3H]-spiperone displacement.
Sequence (P61169 whole entry): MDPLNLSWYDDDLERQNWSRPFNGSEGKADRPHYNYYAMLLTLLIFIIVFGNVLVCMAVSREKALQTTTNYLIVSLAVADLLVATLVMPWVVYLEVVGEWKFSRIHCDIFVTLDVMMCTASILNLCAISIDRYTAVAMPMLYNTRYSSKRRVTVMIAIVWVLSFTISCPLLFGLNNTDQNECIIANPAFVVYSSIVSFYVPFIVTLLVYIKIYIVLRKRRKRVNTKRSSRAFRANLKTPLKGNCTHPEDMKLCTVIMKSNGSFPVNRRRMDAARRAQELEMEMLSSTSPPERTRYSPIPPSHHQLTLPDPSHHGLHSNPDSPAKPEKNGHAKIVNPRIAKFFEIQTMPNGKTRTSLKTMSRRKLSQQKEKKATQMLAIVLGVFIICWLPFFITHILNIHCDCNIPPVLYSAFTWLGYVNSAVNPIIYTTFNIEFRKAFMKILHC
Recorded Ki for the following compounds
Give just the numeric value; nM need not be written.

>  <Compound>
C=CCN(C)[C@@H]1Cc2ccc(O)cc2[C@H]1c1ccccc1 (stereo in doubt; (+)-16a)

>  <Recorded value>
37.5

$$$$
>  <Compound>
N[C@@H]1Cc2ccc(O)cc2[C@H]1c1ccccc1 (stereo in doubt; (+)-14a)

>  <Recorded value>
0.59

$$$$
>  <Compound>
N[C@@H]1Cc2ccc(O)cc2[C@H]1c1ccccc1 (stereo in doubt; (-)-14a)

>  <Recorded value>
0.89

$$$$

Please find the next compound below.
Return reported Ki; argument: CCCN(CCC)[C@@H]1Cc2ccc(O)cc2[C@H]1c1ccccc1 (stereo in doubt; (-)-15a)
0.84

----------
biological target: D(2) dopamine receptor (Rattus norvegicus, UniProt P61169); assay: Binding affinity at Dopamine receptor D2 in rat neostriatum frozen sections by [3H]-spiperone displacement.
pKi: −log10 of the molar value.
Measured pKi values are reported for all entries that follow.

>  <Compound>
N[C@@H]1Cc2cc(O)ccc2[C@H]1c1ccccc1 (stereo in doubt; (-)-14b)

>  <Measurement target>
D(2) dopamine receptor (Rattus norvegicus, UniProt P61169)

>  <pKi>
< 6.00

$$$$
>  <Compound>
CCCN(CCC)[C@@H]1Cc2cc(O)ccc2[C@H]1c1ccccc1 (stereo in doubt; (-)-15b)

>  <Measurement target>
D(2) dopamine receptor (Rattus norvegicus, UniProt P61169)

>  <pKi>
< 6.00

$$$$
>  <Compound>
C=CCN(C)[C@@H]1Cc2cc(O)ccc2[C@H]1c1ccccc1 (stereo in doubt; (-)-16b)

>  <Measurement target>
D(2) dopamine receptor (Rattus norvegicus, UniProt P61169)

>  <pKi>
< 6.00

$$$$

# input compound: CCCN(C)[C@@H]1Cc2cc(O)ccc2[C@H]1c1ccccc1 (stereo in doubt; (+)-17b) ; wanted: its pKi
< 6.00
